Exercise: state measured inhibition of SARS-CoV-2 cytopathic effect for each of the molecules provided.
Test system: Vero E6 infected with SARS-CoV-2
procedure-summary: inhibition of SARS-CoV-2 cytopathic effect; higher = more antiviral protection, active = above 15
condition-notes: 833.33 nM; 48 h
Just the number in %, nothing appended.

q: Could you share which inhibition of SARS-CoV-2 cytopathic effect value was measured for CC(=O)Oc1c(C)cc(OCC(O)CNC(C)C)c(C)c1C (stereo not drawn) ?
a: -1.66

q: Could you share which inhibition of SARS-CoV-2 cytopathic effect value was measured for CN(C)Cc1c(C(=O)NCCOc2ccc(C(=O)NO)cc2)oc2ccccc12 ?
a: -15.5

q: Could you share which inhibition of SARS-CoV-2 cytopathic effect value was measured for CC(C)(C)/[N+]([O-])=C/c1ccc(S(=O)(=O)O)cc1S(=O)(=O)O ?
a: 0.47

q: Could you share which inhibition of SARS-CoV-2 cytopathic effect value was measured for O=C(O)[C@H]1CN(C/C=C/P(=O)(O)O)CCN1 ?
a: 1.03

q: Could you share which inhibition of SARS-CoV-2 cytopathic effect value was measured for CN1CCc2nc(C(=O)N[C@@H]3C[C@@H](C(=O)N(C)C)CC[C@@H]3NC(=O)C(=O)Nc3ccc(Cl)cn3)sc2C1 ?
a: -3.37

q: Could you share which inhibition of SARS-CoV-2 cytopathic effect value was measured for COc1cc(OC)c(OC)cc1C=O ?
a: -1.97

q: Could you share which inhibition of SARS-CoV-2 cytopathic effect value was measured for CN1CCN(CCCN2c3ccccc3Sc3ccc(C(F)(F)F)cc32)CC1 ?
a: -4.01

q: Could you share which inhibition of SARS-CoV-2 cytopathic effect value was measured for CC(C)CC(=O)N[C@H](C(=O)N[C@H](C(=O)N[C@@H](CC(C)C)[C@@H](O)CC(=O)N[C@@H](C)C(=O)N[C@@H](CC(C)C)[C@@H](O)CC(=O)O)C(C)C)C(C)C ?
a: -1.52

---

Exercise: state measured inhibition of SARS-CoV-2 cytopathic effect for each of the compounds provided.
System: Vero E6 infected with SARS-CoV-2
procedure-summary: inhibition of SARS-CoV-2 cytopathic effect; higher = more antiviral protection, active = above 15
condition-notes: 1 nM; 48 h
Just the number in %, nothing appended.

q: Fill in the recorded inhibition of SARS-CoV-2 cytopathic effect for this compound, with Vero E6 infected with SARS-CoV-2 as test system: O=C(NCC1CCCCN1)c1cc(OCC(F)(F)F)ccc1OCC(F)(F)F (stereo unspecified) [flecainide]
a: -1.39

q: Fill in the recorded inhibition of SARS-CoV-2 cytopathic effect for this compound, with Vero E6 infected with SARS-CoV-2 as test system: CCCCC/C=C\C=C\CCCCCCCCC(=O)O [trans-10,cis-12-conjugated-linoleic-acid]
a: -0.53

q: Fill in the recorded inhibition of SARS-CoV-2 cytopathic effect for this compound, with Vero E6 infected with SARS-CoV-2 as test system: Cc1ccc(S(N)(=O)=O)cc1 [para-toluenesulfonamide]
a: 3.73

q: Fill in the recorded inhibition of SARS-CoV-2 cytopathic effect for this compound, with Vero E6 infected with SARS-CoV-2 as test system: O=C(OCCN1CCOCC1)c1cccnc1Nc1cccc(C(F)(F)F)c1 [morniflumate]
a: -1.61

q: Fill in the recorded inhibition of SARS-CoV-2 cytopathic effect for this compound, with Vero E6 infected with SARS-CoV-2 as test system: C(#CCN1CCCC1)CN1CCCC1 [tremorine]
a: 8.56

q: Fill in the recorded inhibition of SARS-CoV-2 cytopathic effect for this compound, with Vero E6 infected with SARS-CoV-2 as test system: N[C@@H]1CCCCN(c2c(F)cc3c(=O)c(C(=O)O)cn(C4CC4)c3c2Cl)C1 [besifloxacin]
a: -2.51

q: Fill in the recorded inhibition of SARS-CoV-2 cytopathic effect for this compound, with Vero E6 infected with SARS-CoV-2 as test system: CN(C)CCCSc1ccccc1NC(=O)/C=C/c1ccccc1 [cinanserin]
a: 1.46

q: Fill in the recorded inhibition of SARS-CoV-2 cytopathic effect for this compound, with Vero E6 infected with SARS-CoV-2 as test system: O=c1c(-c2ccccc2)c1-c1ccccc1 [diphencyprone]
a: -0.95

q: Fill in the recorded inhibition of SARS-CoV-2 cytopathic effect for this compound, with Vero E6 infected with SARS-CoV-2 as test system: C[N+](C)(C)CC(O)CC(=O)[O-] (stereo unspecified) [carnitine-(D/L)]
a: -1.88

q: Fill in the recorded inhibition of SARS-CoV-2 cytopathic effect for this compound, with Vero E6 infected with SARS-CoV-2 as test system: CCCCCCCCCCCCCCOC(=O)c1cccnc1 [myristyl-nicotinate]
a: 0.94

q: Fill in the recorded inhibition of SARS-CoV-2 cytopathic effect for this compound, with Vero E6 infected with SARS-CoV-2 as test system: O=C(Nc1ccc([N+](=O)[O-])cc1Cl)c1cc(Cl)ccc1O [niclosamide]
a: -0.87

q: Fill in the recorded inhibition of SARS-CoV-2 cytopathic effect for this compound, with Vero E6 infected with SARS-CoV-2 as test system: Cn1ccc2cc(NC(=O)Nc3cccnc3)ccc21
a: -1.98

q: Fill in the recorded inhibition of SARS-CoV-2 cytopathic effect for this compound, with Vero E6 infected with SARS-CoV-2 as test system: C[C@H]1C[C@@H]2[C@H]([C@@H](O)C[C@@]3(C)[C@H]2CC[C@]3(O)C(=O)CO)[C@@]2(C)C=CC(=O)C=C12 [methylprednisolone]
a: 0.61

q: Fill in the recorded inhibition of SARS-CoV-2 cytopathic effect for this compound, with Vero E6 infected with SARS-CoV-2 as test system: Cn1nc(-c2ccc(C(F)(F)F)cc2)nc2c(=O)n(C)c(=O)nc1-2 [walrycin-B]
a: -1.05

q: Fill in the recorded inhibition of SARS-CoV-2 cytopathic effect for this compound, with Vero E6 infected with SARS-CoV-2 as test system: OCCN1CCN(CC/C=C2/c3ccccc3Sc3ccc(C(F)(F)F)cc32)CC1 [flupentixol]
a: -4.51

q: Fill in the recorded inhibition of SARS-CoV-2 cytopathic effect for this compound, with Vero E6 infected with SARS-CoV-2 as test system: C[C@@H]1O[C@@H](O[C@H]2[C@H](Oc3cc(O)c4c(c3)O[C@H](c3ccc(O)cc3)CC4=O)O[C@H](CO)[C@@H](O)[C@@H]2O)[C@H](O)[C@H](O)[C@H]1O [Naringin (Naringoside)]
a: -3.68

q: Fill in the recorded inhibition of SARS-CoV-2 cytopathic effect for this compound, with Vero E6 infected with SARS-CoV-2 as test system: CC1(C)O[C@@H]2C[C@H]3[C@@H]4CCC5=CC(=O)CC[C@]5(C)[C@@]4(F)[C@@H](O)C[C@]3(C)[C@]2(C(=O)CCl)O1 [halcinonide]
a: 2.25

q: Fill in the recorded inhibition of SARS-CoV-2 cytopathic effect for this compound, with Vero E6 infected with SARS-CoV-2 as test system: N#CC(=C(/N)Sc1ccccc1N)/C(C#N)=C(/N)Sc1ccccc1N
a: -0.64

q: Fill in the recorded inhibition of SARS-CoV-2 cytopathic effect for this compound, with Vero E6 infected with SARS-CoV-2 as test system: COC(=O)c1sccc1S(=O)(=O)Nc1ccc(Nc2ccccc2)cc1OC
a: 2.58

q: Fill in the recorded inhibition of SARS-CoV-2 cytopathic effect for this compound, with Vero E6 infected with SARS-CoV-2 as test system: CN(C)CCc1c[nH]c2ccc(C[C@H]3COC(=O)N3)cc12 [zolmitriptan]
a: -2.55

q: Fill in the recorded inhibition of SARS-CoV-2 cytopathic effect for this compound, with Vero E6 infected with SARS-CoV-2 as test system: CCC1(CC)C(=O)C=CNC1=O [pyrithyldione]
a: 1.54

q: Fill in the recorded inhibition of SARS-CoV-2 cytopathic effect for this compound, with Vero E6 infected with SARS-CoV-2 as test system: O=C(O)C(Cc1ccccc1[N+](=O)[O-])=NNc1nc(-c2ccc(Cl)c(Cl)c2)cs1
a: 4.49

q: Fill in the recorded inhibition of SARS-CoV-2 cytopathic effect for this compound, with Vero E6 infected with SARS-CoV-2 as test system: O=C(O)Cn1c2c(c3cc(F)ccc31)CN(C(=O)c1cccc3ccccc13)CC2 [setipiprant]
a: -1.54

q: Fill in the recorded inhibition of SARS-CoV-2 cytopathic effect for this compound, with Vero E6 infected with SARS-CoV-2 as test system: NS(=O)(=O)OC[C@@H]1C[C@@H](n2ccc3c(N[C@H]4CCc5ccccc54)ncnc32)C[C@@H]1O [pevonedistat]
a: 1.08

q: Fill in the recorded inhibition of SARS-CoV-2 cytopathic effect for this compound, with Vero E6 infected with SARS-CoV-2 as test system: Nc1cc(N2CCCCC2)nc(N)[n+]1[O-] [minoxidil]
a: 0.37

q: Fill in the recorded inhibition of SARS-CoV-2 cytopathic effect for this compound, with Vero E6 infected with SARS-CoV-2 as test system: CCOc1cccc(NC(=O)c2ccc(N3CCCC3)c(C(F)(F)F)c2)c1
a: 0.59

q: Fill in the recorded inhibition of SARS-CoV-2 cytopathic effect for this compound, with Vero E6 infected with SARS-CoV-2 as test system: O=C(NOCCO)c1ccc2cncn2c1Nc1ccc(I)cc1F
a: -1.68

q: Fill in the recorded inhibition of SARS-CoV-2 cytopathic effect for this compound, with Vero E6 infected with SARS-CoV-2 as test system: O=C(O)COc1ccc(OCCNC[C@H](O)COc2ccccc2)cc1
a: -0.61

q: Fill in the recorded inhibition of SARS-CoV-2 cytopathic effect for this compound, with Vero E6 infected with SARS-CoV-2 as test system: C#C[C@]1(O)CC[C@H]2[C@@H]3CCc4cc(OC5CCCC5)ccc4[C@H]3CC[C@@]21C [quinestrol]
a: -2.85

q: Fill in the recorded inhibition of SARS-CoV-2 cytopathic effect for this compound, with Vero E6 infected with SARS-CoV-2 as test system: O=C(O)Cc1sc(-c2ccccc2)nc1-c1ccc(Cl)cc1 [fentiazac]
a: -0.18

q: Fill in the recorded inhibition of SARS-CoV-2 cytopathic effect for this compound, with Vero E6 infected with SARS-CoV-2 as test system: CN(C/C=C/C#CC(C)(C)C)Cc1cccc2ccccc12 [terbinafine]
a: 5.77

q: Fill in the recorded inhibition of SARS-CoV-2 cytopathic effect for this compound, with Vero E6 infected with SARS-CoV-2 as test system: CC(C)C(=O)OC[C@H]1O[C@@H](n2ccc(N)nc2=O)[C@](C)(F)[C@@H]1OC(=O)C(C)C [mericitabine]
a: -0.35

q: Fill in the recorded inhibition of SARS-CoV-2 cytopathic effect for this compound, with Vero E6 infected with SARS-CoV-2 as test system: C1CCC(/N=C(\NC23CC4CC(CC(C4)C2)C3)N2CCOCC2)CC1
a: 7.27

q: Fill in the recorded inhibition of SARS-CoV-2 cytopathic effect for this compound, with Vero E6 infected with SARS-CoV-2 as test system: C[N+](C)(C)CCOC(=O)CCC(=O)OCC[N+](C)(C)C [succinylcholine-chloride]
a: 2.27

q: Fill in the recorded inhibition of SARS-CoV-2 cytopathic effect for this compound, with Vero E6 infected with SARS-CoV-2 as test system: O=C1NC(=O)c2cc(Nc3ccc(F)cc3)c(Nc3ccc(F)cc3)cc21
a: 1.21

q: Fill in the recorded inhibition of SARS-CoV-2 cytopathic effect for this compound, with Vero E6 infected with SARS-CoV-2 as test system: C[C@@H](c1nc(-c2ccc(C#N)cc2)cs1)[C@](O)(Cn1cncn1)c1ccc(F)cc1F [ravuconazole]
a: -0.11

Origin of values: the supplement of paper PMC13380429
